# measuredOn: Anti-alpha galactosyl IgG antibody
# assayComment: ELISA assay: streptavidin-captured biotin compound, binding of anti-alpha galactosyl IgG antibody
# recordedConditions: geometric mean with standard error in brackets; streptavidin plate, anti-alpha galactosyl IgG 0.5 μg/mL; read-out: Concentration at half maximal binding
Listed here are compounds together with their documented pEC50.
A value of pEC50 is the negative decimal logarithm of a concentration given in moles per litre.

Reference set (5 entries):
Form field - read-out: pEC50; system: Anti-alpha galactosyl IgG antibody; submitted item: CC(=O)NC1C(OCCCNC(=O)CCCNC(=O)CCOCCOCCOCCOCCNC(=O)COc2cc(OCC(=O)NCCOCCOCCOCCOCCC(=O)NCCCC(=O)NCCCOC3OC(CO)C(OC4OC(CO)C(O)C(OC5OC(CO)C(O)C(O)C5O)C4O)C(O)C3NC(C)=O)cc(-c3cc(OCC(=O)NCCOCCOCCOCCOCCC(=O)NCCCC(=O)NCCCOC4OC(CO)C(OC5OC(CO)C(O)C(OC6OC(CO)C(O)C(O)C6O)C5O)C(O)C4NC(C)=O)cc(C(=O)NCCNC(=O)CCCCC4SCC5NC(=O)NC54)c3)c2)OC(CO)C(OC2OC(CO)C(O)C(OC3OC(CO)C(O)C(O)C3O)C2O)C1O (centres unmarked)
7.67

Follow-up entry: CC(=O)N[C@H]1[C@H](OCCCNC(=O)CCCCC(=O)NCc2cccc(C(=O)NCCNC(=O)CCCC[C@@H]3SC[C@@H]4NC(=O)N[C@@H]43)c2)O[C@H](CO)[C@@H](O[C@@H]2O[C@H](CO)[C@H](O)[C@H](O[C@H]3O[C@H](CO)[C@H](O)[C@H](O)[C@H]3O)[C@H]2O)[C@@H]1O
7.43

Moving on to CC(=O)N[C@H]1[C@H](OCCCNC(=O)COc2ccc(-c3cc(OCC(=O)NCCCO[C@@H]4O[C@H](CO)[C@@H](O[C@@H]5O[C@H](CO)[C@H](O)[C@H](O[C@H]6O[C@H](CO)[C@H](O)[C@H](O)[C@H]6O)[C@H]5O)[C@H](O)[C@H]4NC(C)=O)cc(C(=O)NCCNC(=O)CCCC[C@@H]4SC[C@@H]5NC(=O)N[C@@H]54)c3)cc2)O[C@H](CO)[C@@H](O[C@@H]2O[C@H](CO)[C@H](O)[C@H](O[C@H]3O[C@H](CO)[C@H](O)[C@H](O)[C@H]3O)[C@H]2O)[C@@H]1O
7.80

Now the same for CC(=O)N[C@H]1[C@H](OCCCNC(=O)COc2cccc(C(=O)NCCNC(=O)CCCC[C@@H]3SC[C@@H]4NC(=O)N[C@@H]43)c2)O[C@H](CO)[C@@H](O[C@@H]2O[C@H](CO)[C@H](O)[C@H](O[C@H]3O[C@H](CO)[C@H](O)[C@H](O)[C@H]3O)[C@H]2O)[C@@H]1O
7.67

CC(=O)NC1C(OCCCNC(=O)COc2cccc(C(=O)NCCNC(=O)CCOCCOCCOCCOCCOCCOCCOCCOCCOCCOCCOCCOCCNC(=O)CCCCC3SCC4NC(=O)NC43)c2)OC(CO)C(OC2OC(CO)C(O)C(OC3OC(CO)C(O)C(O)C3O)C2O)C1O (centres unmarked) ?
7.82

Others:
Test system Anti-alpha galactosyl IgG antibody; read-out pEC50; what value for CC(=O)N[C@H]1[C@H](OCCCNC(=O)COc2cccc(CNC(=O)CCCCC(=O)NCCNC(=O)CCCC[C@@H]3SC[C@@H]4NC(=O)N[C@@H]43)c2)O[C@H](CO)[C@@H](O[C@@H]2O[C@H](CO)[C@H](O)[C@H](O[C@H]3O[C@H](CO)[C@H](O)[C@H](O)[C@H]3O)[C@H]2O)[C@@H]1O ?
7.43

Would you mind doing CC(=O)N[C@H]1[C@H](OCCCNC(=O)c2cccc(OCC(=O)NCCNC(=O)CCCC[C@@H]3SC[C@@H]4NC(=O)N[C@@H]43)c2)O[C@H](CO)[C@@H](O[C@@H]2O[C@H](CO)[C@H](O)[C@H](O[C@H]3O[C@H](CO)[C@H](O)[C@H](O)[C@H]3O)[C@H]2O)[C@@H]1O as well?
7.88

What do you have for CC(=O)N[C@H]1[C@H](OCCCNC(=O)COc2cc(OCC(=O)NCCCO[C@@H]3O[C@H](CO)[C@@H](O[C@@H]4O[C@H](CO)[C@H](O)[C@H](O[C@H]5O[C@H](CO)[C@H](O)[C@H](O)[C@H]5O)[C@H]4O)[C@H](O)[C@H]3NC(C)=O)cc(C(=O)NCCNC(=O)CCCC[C@@H]3SC[C@@H]4NC(=O)N[C@@H]43)c2)O[C@H](CO)[C@@H](O[C@@H]2O[C@H](CO)[C@H](O)[C@H](O[C@H]3O[C@H](CO)[C@H](O)[C@H](O)[C@H]3O)[C@H]2O)[C@@H]1O ?
8.04

====

Measured pEC50, listed per entry.
# measuredOn: Anti-alpha galactosyl IgG antibody
# assayComment: ELISA assay: streptavidin-captured biotin compound, binding of anti-alpha galactosyl IgG antibody
# recordedConditions: geometric mean with standard error in brackets; streptavidin plate, anti-alpha galactosyl IgG 0.5 μg/mL; read-out: Concentration at half maximal binding
By convention, pEC50 is the negative base-10 log of a molar concentration.

These solved cases illustrate the format of a correct answer.
Need pEC50, item CC(=O)NC1C(OCCCNC(=O)CCOCCOCCOCCOCCNC(=O)COc2ccc(-c3cc(OCC(=O)NCCOCCOCCOCCOCCC(=O)NCCCOC4OC(CO)C(OC5OC(CO)C(O)C(OC6OC(CO)C(O)C(O)C6O)C5O)C(O)C4NC(C)=O)cc(C(=O)NCCNC(=O)CCCCC4SCC5NC(=O)NC54)c3)cc2)OC(CO)C(OC2OC(CO)C(O)C(OC3OC(CO)C(O)C(O)C3O)C2O)C1O (stereo not drawn)
7.83

Also, CC(=O)N[C@H]1[C@H](OCCCNC(=O)COc2cc(C(=O)NCCNC(=O)CCCC[C@@H]3SC[C@@H]4NC(=O)N[C@@H]43)nc3ccccc23)O[C@H](CO)[C@@H](O[C@@H]2O[C@H](CO)[C@H](O)[C@H](O[C@H]3O[C@H](CO)[C@H](O)[C@H](O)[C@H]3O)[C@H]2O)[C@@H]1O please.
7.59

# ---- query molecule ----
Look at this molecule and give its reported pEC50. CC(=O)N[C@H]1[C@H](OCCCNCc2cccc(C(=O)NCCNC(=O)CCCC[C@@H]3SC[C@@H]4NC(=O)N[C@@H]43)c2)O[C@H](CO)[C@@H](O[C@@H]2O[C@H](CO)[C@H](O)[C@H](O[C@H]3O[C@H](CO)[C@H](O)[C@H](O)[C@H]3O)[C@H]2O)[C@@H]1O
7.75

====

# measuredOn: Anti-alpha galactosyl IgG antibody
# assayComment: ELISA assay: streptavidin-captured biotin compound, binding of anti-alpha galactosyl IgG antibody
# recordedConditions: geometric mean with standard error in brackets; streptavidin plate, anti-alpha galactosyl IgG 0.5 μg/mL; read-out: Concentration at half maximal binding
Here, each record is paired with measured pEC50 data.
Give only the number. pEC50 is defined as minus log10 of concentration in molar units.

So what's the measured pEC50 for this one? CC(=O)N[C@H]1[C@H](OCCCNC(=O)COc2ccc(C(=O)NCCNC(=O)CCCC[C@@H]3SC[C@@H]4NC(=O)N[C@@H]43)cc2)O[C@H](CO)[C@@H](O[C@@H]2O[C@H](CO)[C@H](O)[C@H](O[C@H]3O[C@H](CO)[C@H](O)[C@H](O)[C@H]3O)[C@H]2O)[C@@H]1O
7.54

---
Entry CC(=O)N[C@H]1[C@H](OCCCNC(=O)COc2ccc(-c3cccc(C(=O)NCCNC(=O)CCCC[C@@H]4SC[C@@H]5NC(=O)N[C@@H]54)c3)cc2)O[C@H](CO)[C@@H](O[C@@H]2O[C@H](CO)[C@H](O)[C@H](O[C@H]3O[C@H](CO)[C@H](O)[C@H](O)[C@H]3O)[C@H]2O)[C@@H]1O has what pEC50?
7.72

====

# measuredOn: Anti-alpha galactosyl IgG antibody
# assayComment: ELISA assay: streptavidin-captured biotin compound, binding of anti-alpha galactosyl IgG antibody
# recordedConditions: geometric mean with standard error in brackets; streptavidin plate, anti-alpha galactosyl IgG 0.5 μg/mL; read-out: Concentration at half maximal binding
resultType: EC50 (nM)
A number alone suffices; assume nM.

In the examples that follow, each entry is paired with its recorded EC50.
State the recorded EC50 for this entry: CC(=O)NC1C(OCCCNC(=O)COc2cc(OCC(=O)NCCCOC3OC(CO)C(OC4OC(CO)C(O)C(OC5OC(CO)C(O)C(O)C5O)C4O)C(O)C3NC(C)=O)cc(-c3cc(OCC(=O)NCCCOC4OC(CO)C(OC5OC(CO)C(O)C(OC6OC(CO)C(O)C(O)C6O)C5O)C(O)C4NC(C)=O)cc(C(=O)NCCNC(=O)CCOCCOCCOCCOCCOCCOCCOCCOCCOCCOCCOCCOCCNC(=O)CCCCC4SCC5NC(=O)NC54)c3)c2)OC(CO)C(OC2OC(CO)C(O)C(OC3OC(CO)C(O)C(O)C3O)C2O)C1O (stereo not drawn)
8.4

Also need CC(=O)NC1C(OCCCNC(=O)CCOCCOCCOCCOCCOCCOCCOCCOCCOCCOCCOCCOCCNC(=O)COc2ccc(-c3cc(OCC(=O)NCCOCCOCCOCCOCCOCCOCCOCCOCCOCCOCCOCCOCCC(=O)NCCCOC4OC(CO)C(OC5OC(CO)C(O)C(OC6OC(CO)C(O)C(O)C6O)C5O)C(O)C4NC(C)=O)cc(C(=O)NCCNC(=O)CCOCCOCCOCCOCCOCCOCCOCCOCCOCCOCCOCCOCCNC(=O)CCCCC4SCC5NC(=O)NC54)c3)cc2)OC(CO)C(OC2OC(CO)C(O)C(OC3OC(CO)C(O)C(O)C3O)C2O)C1O (stereo not drawn) , thanks.
25

We next turn to a different compound, shown below.
Look up EC50: CC(=O)NC1C(OCCCNC(=O)CCOCCOCCOCCOCCNC(=O)COc2cccc(C(=O)NCCNC(=O)CCOCCOCCOCCOCCOCCOCCOCCOCCOCCOCCOCCOCCNC(=O)CCCCC3SCC4NC(=O)NC43)c2)OC(CO)C(OC2OC(CO)C(O)C(OC3OC(CO)C(O)C(O)C3O)C2O)C1O (stereo not drawn)
11.8
